Consider the following compounds and their measured % comp. 480′ readings.
Experiment: Rat plasma stability of selected prodrugs (37° C., RP-HPLC)
Assay type: in vitro ADME
Settings: rat plasma, 37° C., 480 minutes, peak area
// units = %; emit number, no label

The examples below pair each entry with its known result.
smiles data	% comp. 480′ / %
COCCOCCOCCOCCOCCOCCOCCOCCOC(=O)N(C(=O)NCCCN1CCC(c2cccc(OC)c2)CC1)c1cccc(C2C(C(=O)OC)=C(C)NC(C)=C2C(=O)OC)c1.Cl	94.0
CCOC(=O)N(C(=O)NCCCN1CCC(c2cccc(OC)c2)CC1)c1cccc(C2C(C(=O)OC)=C(C)NC(C)=C2C(=O)OC)c1.Cl	95.0
COCCOCCOCCOC(=O)N(C(=O)NCCCN1CCC(c2cccc(OC)c2)CC1)c1cccc(C2C(C(=O)OC)=C(C)NC(C)=C2C(=O)OC)c1.Cl	95.0
COCCOCCOCCOCCOC(=O)N(C(=O)NCCCN1CCC(c2cccc(OC)c2)CC1)c1cccc(C2C(C(=O)OC)=C(C)NC(C)=C2C(=O)OC)c1.Cl	96.0

Pending compound:
Per the records, this compound ( `COC(=O)C1=C(C)NC(C)=C(C(=O)OC)C1c1cccc(N(C(=O)NCCCN2CCC(c3cccc(OC)c3)CC2)C(=O)OC(CO)CO)c1.Cl` ) has % comp. 480′ equal to 1

---

Assay: pH 2.0 stability of prodrugs of the native compound (0.06M phosphate buffer, 37° C., 2 hours, RP-HPLC)
Conditions: pH 2.0 phosphate buffer, 37° C.
reported metric: pH 2 Stability

compound	pH 2 Stability
COCCOCCOCCOC(=O)N(C(=O)NCCCN1CCC(c2cccc(OC)c2)CC1)c1cccc(C2C(C(=O)OC)=C(C)NC(C)=C2C(=O)OC)c1 [Compound 6]	>2 h
COCCOC(=O)N(C(=O)NCCCN1CCC(c2cccc(OC)c2)CC1)c1cccc(C2C(C(=O)OC)=C(C)NC(C)=C2C(=O)OC)c1.Cl [Compound 22]	>2 h
COCCOCCOCCOCCOCCOCCOCCOCCOC(=O)N(C(=O)NCCCN1CCC(c2cccc(OC)c2)CC1)c1cccc(C2C(C(=O)OC)=C(C)NC(C)=C2C(=O)OC)c1 [Compound 8]	>2 h
CCOC(=O)N(C(=O)NCCCN1CCC(c2cccc(OC)c2)CC1)c1cccc(C2C(C(=O)OC)=C(C)NC(C)=C2C(=O)OC)c1.Cl [Compound 14]	>2 h
COCCOCCOCCOCCOC(=O)N(C(=O)NCCCN1CCC(c2cccc(OC)c2)CC1)c1cccc(C2C(C(=O)OC)=C(C)NC(C)=C2C(=O)OC)c1.Cl [Compound 17]	>2 h

Consider the additional compound presented here.
According to the records, this compound CCOC(=O)OCCOCCOCCOC [Compound 5] displays pH 2 Stability of None

---

Test: pH 2.0 stability of prodrugs of the native compound (0.06M phosphate buffer, 37° C., 2 hours, RP-HPLC)
Details: pH 2.0 phosphate buffer, 37° C.
reported metric: pH 2 Stability

// below: answered compounds
smiles data	pH 2 Stability
CCOCCOCCOCCC(=O)OCC	None
CCOC(=O)CCOCCOCCOCCOCCOCCOCCOCCOCCOC	None
CCOC(=O)COCCOCCOC	None
COCCOCCOCCOCCOCCOCCOCCOCCOC(=O)N(C(=O)NCCCN1CCC(c2cccc(OC)c2)CC1)c1cccc(C2C(C(=O)OC)=C(C)NC(C)=C2C(=O)OC)c1.Cl	>2 h
COC(=O)C1=C(C)NC(C)=C(C(=O)OC)C1c1cccc(N(C(=O)NCCCN2CCC(c3cccc(OC)c3)CC2)C(=O)OC)c1.Cl	>2 h

Value of pH 2 Stability reported for the compound `CCOC(=O)CCOCCOCCOC` is None

Record summary for `COCCOCCOCCOC(=O)N(C(=O)NCCCN1CCC(c2cccc(OC)c2)CC1)c1cccc(C2C(C(=O)OC)=C(C)NC(C)=C2C(=O)OC)c1.Cl` : reported pH 2 Stability = >2 h

Value of pH 2 Stability reported for the compound `COCCOCCOC(=O)N(C(=O)NCCCN1CCC(c2cccc(OC)c2)CC1)c1cccc(C2C(C(=O)OC)=C(C)NC(C)=C2C(=O)OC)c1.Cl` is >2 h
